src = patent US20250250357A1

- Experimental target: T1, human MSLN-R2-his protein (human, UniProt Q13421 391-486)
- T1 construct: Region 2 of human mesothelin, made in HEK293E cells, His-tagged; also called human MSLN-R2 protein; hMSLN-R2-his; not shown: His tag
- T1 sequence (Q13421 other isoform, or with tags, fused parts or gaps): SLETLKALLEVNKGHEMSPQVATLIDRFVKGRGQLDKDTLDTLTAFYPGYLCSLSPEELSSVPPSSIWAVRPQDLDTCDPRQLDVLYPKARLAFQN
- Protocol: ELISA on coated MSLN-R2; antibody 0.001 nM
Measured metric: OD450 (OD450)
Give a bare numeral; the unit OD450 is implied.

If you can, please state the reported OD450 value of S009-F8-8.22 (antibody, human IgG1, kappa, V domains shown) VH: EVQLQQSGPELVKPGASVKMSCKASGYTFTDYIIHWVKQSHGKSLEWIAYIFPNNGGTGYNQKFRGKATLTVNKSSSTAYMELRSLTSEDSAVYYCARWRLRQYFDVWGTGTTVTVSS VL: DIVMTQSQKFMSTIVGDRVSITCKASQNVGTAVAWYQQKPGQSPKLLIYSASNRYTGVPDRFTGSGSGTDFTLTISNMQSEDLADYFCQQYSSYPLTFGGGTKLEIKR .
0.05

If you can, please state the reported OD450 value of S009-F8-5.15 (antibody, human IgG1, kappa, V domains shown) VH: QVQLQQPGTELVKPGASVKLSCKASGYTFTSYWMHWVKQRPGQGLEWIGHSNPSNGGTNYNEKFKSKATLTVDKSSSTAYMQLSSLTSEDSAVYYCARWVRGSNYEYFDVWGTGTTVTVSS VL: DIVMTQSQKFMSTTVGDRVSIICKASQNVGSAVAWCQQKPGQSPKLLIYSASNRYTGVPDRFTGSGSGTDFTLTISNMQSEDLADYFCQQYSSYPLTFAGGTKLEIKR .
0.05

If you can, please state the reported OD450 value of Tab106 (YP218, hIgG1) (antibody, V domains shown, also called YP218 human IgG1 antibody) VH: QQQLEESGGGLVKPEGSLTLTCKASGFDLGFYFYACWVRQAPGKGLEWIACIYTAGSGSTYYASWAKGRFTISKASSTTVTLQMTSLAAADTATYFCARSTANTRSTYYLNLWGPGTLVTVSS VL: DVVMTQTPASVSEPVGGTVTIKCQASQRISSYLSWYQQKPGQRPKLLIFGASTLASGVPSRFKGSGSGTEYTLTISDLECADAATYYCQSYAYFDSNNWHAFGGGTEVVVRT .
0.04

If you can, please state the reported OD450 value of S009-F8-29.1 (antibody, human IgG1, kappa, V domains shown) VH: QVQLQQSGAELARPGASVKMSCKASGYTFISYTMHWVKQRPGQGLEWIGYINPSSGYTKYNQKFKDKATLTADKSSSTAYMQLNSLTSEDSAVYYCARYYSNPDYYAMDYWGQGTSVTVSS VL: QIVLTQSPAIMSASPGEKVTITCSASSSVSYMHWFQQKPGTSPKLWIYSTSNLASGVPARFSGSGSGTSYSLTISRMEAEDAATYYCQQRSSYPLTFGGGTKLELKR .
0.04

If you can, please state the reported OD450 value of S009-F8-18.9 (antibody, human IgG1, kappa, V domains shown) VH: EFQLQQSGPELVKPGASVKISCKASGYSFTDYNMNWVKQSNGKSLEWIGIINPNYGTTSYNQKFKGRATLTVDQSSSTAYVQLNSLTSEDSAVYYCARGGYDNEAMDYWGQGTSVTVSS VL: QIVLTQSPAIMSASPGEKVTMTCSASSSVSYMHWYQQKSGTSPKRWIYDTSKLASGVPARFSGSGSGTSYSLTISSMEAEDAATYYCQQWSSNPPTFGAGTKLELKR .
0.04
